# Tested on: FAB9
# Protocol: qHTS profiling for inhibitors of Plasmodium falciparum proliferation (AID 504749); note: nearly all actives have a fitted effect of over 60% in size
# Particulars: P. falciparum in erythrocytes, SYBR Green DNA, 72 h; series mostly up to 28.7 µM
Results filed as inconclusive are left out. Activity calls are given as the source filed them. Calls come from the whole dose curve; as a rule, active = well fitted inhibition curve with a large enough effect; inconclusive = small, poorly fitted or top-dose-only effect; inactive = flat fitted curve, though single readings scatter.
Classes used: active, inactive

Compound	Class
O=C(O)/C=C/C(=O)Nc1ccc(S(=O)(=O)Nc2nccs2)cc1	inactive
NCCO/C=C/[C@H](N)C(=O)O	inactive
C#C[C@]1(O)CC[C@@H]2[C@H]3CCC4=CC(=O)CC[C@H]4[C@H]3C(=C)C[C@@]21CC	inactive
O=C1CCC(=O)N1CO	inactive
CN(C)CCCSc1ccccc1NC(=O)/C=C/c1ccccc1	inactive
CC(C)[C@@H](N)C(=O)O	inactive
CCCCCCCCCCCC(=O)OCC(O)CO (stereo not given)	inactive
C=C(C)C1CC=C(C)CC1 (stereo not given)	inactive
CN1CCCC(CN2c3ccccc3Sc3ccccc32)C1 (stereo not given)	inactive
O=C1c2ccccc2C(=O)c2c1ccc(O)c2O	inactive
CN1CCC(OC(=O)C(Oc2ccc(Cl)cc2)Oc2ccc(Cl)cc2)CC1	inactive
CCN(CC)CCOc1ccccc1OC	inactive
Nc1nccs1	inactive
CCCCC[C@H](O)/C=C/[C@@H]1[C@H]2C/C(=C/CCCC(=O)O)O[C@H]2C[C@H]1O	inactive
Cc1cc2nc3c(=O)[nH]c(=O)nc-3n(C[C@H](O)[C@H](O)[C@H](O)COP(=O)(O)OP(=O)(O)OC[C@H]3O[C@@H](n4cnc5c(N)ncnc54)[C@H](O)[C@@H]3O)c2cc1C	inactive
CC/C(=C(/CC)c1ccc(OP(=O)(O)O)cc1)c1ccc(OP(=O)(O)O)cc1	inactive
Cc1ncc(C[n+]2csc(CCO)c2C)c(N)n1	inactive
CC1CC(OC(=O)C(O)c2ccccc2)CC(C)(C)C1 (stereo not given)	inactive
CCCCC(CC)CCC(CC(C)C)OS(=O)(=O)O (stereo not given)	inactive
CC1C(=O)CC2C3(C)CCC2(C(C)C(=O)O)C(=O)C13 (stereo not given)	inactive
O=C(O)c1ccc(OCCn2ccnc2)cc1	inactive
O=C(O)CCCC/C=C(\c1ccccc1)c1cccnc1	inactive
CC1=CC(=C(c2ccc(N)cc2)c2ccc(N)cc2)C=CC1=N	active
NC(=O)[C@H]1O[C@@H](O)[C@H](O)[C@@H](O)[C@@H]1O	inactive
C=CCOc1ccc(CC(=O)O)cc1Cl	inactive
